# measurement-target: transferrin (Homo sapiens, UniProt P02787)
# Sequence (P02787 20-698): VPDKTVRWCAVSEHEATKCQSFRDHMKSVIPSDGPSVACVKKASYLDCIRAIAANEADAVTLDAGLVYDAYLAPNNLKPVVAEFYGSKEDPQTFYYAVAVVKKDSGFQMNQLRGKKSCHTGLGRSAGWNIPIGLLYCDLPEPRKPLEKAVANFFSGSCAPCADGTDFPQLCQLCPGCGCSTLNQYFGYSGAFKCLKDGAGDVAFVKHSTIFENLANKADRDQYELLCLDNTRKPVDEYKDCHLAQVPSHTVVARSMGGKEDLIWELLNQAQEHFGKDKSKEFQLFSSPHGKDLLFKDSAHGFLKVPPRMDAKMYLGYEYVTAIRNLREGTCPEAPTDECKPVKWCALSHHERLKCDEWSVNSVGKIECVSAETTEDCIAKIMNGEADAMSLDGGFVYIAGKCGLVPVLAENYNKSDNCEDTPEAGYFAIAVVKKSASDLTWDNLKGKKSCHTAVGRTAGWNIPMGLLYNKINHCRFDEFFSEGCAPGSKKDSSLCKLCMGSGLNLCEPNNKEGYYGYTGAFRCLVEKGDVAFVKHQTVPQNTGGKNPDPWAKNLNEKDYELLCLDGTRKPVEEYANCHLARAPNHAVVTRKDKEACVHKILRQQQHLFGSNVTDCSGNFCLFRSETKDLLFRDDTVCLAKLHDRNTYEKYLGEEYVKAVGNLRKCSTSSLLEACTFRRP
# experiment-notes: SPR characterization of TRF26 lead and point-mutant peptides against transferrin
# Assay type: binding
# condition-set: observed; read-out: dissociation constant
Where no end group is shown, it is not given here.
recorded-metric: Kd (µM)

monomer_sequence="AHKVVYQRQIRHAYNRYGSC [P6Y]" quantitative_readout=8.6

a = AHKVVPQRQIRFAYNRYGSC [H12F]
b = AHKVVYQRQIRFAYNRYGSC [P6Y + H12F]
## Task Compare Kd: is it lower for a or for b ? Please identify the chosen entry by its label.
## Result b

---

# measurement-target: transferrin (Homo sapiens, UniProt P02787)
# experiment-notes: SPR characterization of TRF26 lead and point-mutant peptides against transferrin
# Assay type: binding
# condition-set: Table 13C; read-out: Kd
# Experimental: In this example, a small library of ˜300 variant peptides was synthesized in 96-well format. […] The lead peptide (TRF26, see Table 6) was selected as a moderate-affinity binder of the target protein transferrin. […] Peptide sample preparation. […] Peptide sample purity was determined by MALDI-MS analysis of the diluted peptide samples. […] Quantification of relative target affinities. […]
Where no end group is shown, it is not given here.
recorded-metric: pKd
Scale explanation: pKd corresponds to minus log10 of a concentration expressed in moles per litre.

## Task Give the measured pKd of AHKVVPQRQIRHAYNRYGSC [TRF26] .
## Result 4.07

---

# measurement-target: transferrin (Homo sapiens)
# experiment-notes: SPR of SYN23-26 binding to transferrin
# condition-set: read-out: estimated Kd with respect to transferrin
pKd: −log10 of the molar value. Bridges are numbered along the chain shown (N, C = ends). Roman numbers before positions name the chains, in order. Where no end group is shown, it is not given here.
recorded-metric: pKd

## Task Which pKd is listed for I: AHKVVPQRQIRHAYNRYGSGKC / II: FRGWAHIFFGPHVIYRGGSG (amide I:21-II:C) [SYN23-26] ?
## Result ~6.85
